Assay: Selectivity index, ratio of GI50 for cytotoxicity against human HepG2 cells to MEC for potentiation of colistin-induced antibacterial activity against Escherichia coli AR-0493 assessed as minimum re-sensitizing concentration
Type: toxicity, cell-based
Details: read-out: Selectivity Index
measured-quantity: selectivity ratio
Could you keep your reply to the number by itself?

Quick one: selectivity ratio of "Clc1cccc(CNc2nc3nonc3nc2NCc2cccc(Cl)c2)c1" ?
3.2

Cool, now "CCCCCNc1nc2nonc2nc1Nc1cccc(Cl)c1"
4.3

Cool, now "Clc1ccc(CNc2nc3nonc3nc2Nc2cccc(Cl)c2)cc1"
19

====

Test: Cytotoxicity against human HepG2 cells by Cell Titer Glo assay
Type: toxicity, cell-based
I'd appreciate it if you marked entries criterion met when GI50 is lower than 2 µg/mL and criterion not met when it is not.

Confirm or reject: GI50 of "FC(F)(F)Oc1cccc(CNc2nc3nonc3nc2NCc2cccc(OC(F)(F)F)c2)c1" lies strictly below 2 µg/mL
criterion not met

Cool, now "CCCCCNc1nc2nonc2nc1Nc1cccc(Cl)c1"
criterion not met

Cool, now "CCCCCCCNc1nc2nonc2nc1Nc1cccc(Cl)c1"
criterion not met

Cool, now "FC(F)(F)c1cccc(CNc2nc3nonc3nc2Nc2cccc(Cl)c2)c1"
criterion not met

Cool, now "CCCCCCNc1nc2nonc2nc1NCCCCCC"
criterion met

Cool, now "Clc1cccc(Nc2nc3nonc3nc2NCCc2ccccc2)c1"
criterion met
